Form field: absorbance (one value per entry).
- target_or_system: MBP
- assay_comment: ELISA
I only need the number, thanks.

Worked cases, answers included:
INSERT INTO assay_data (binder, measured_result) VALUES
  ('KPEP11_05 (antibody, V domains shown, Rabbit IgG; also called anti-human EphA4 rabbit monoclonal antibody KPEP11_05) VH: QSLEESGGRLVTPGGSLTLTCTVSGIDLSSYAMSWVRQAPEKGLEWIGFINNYGTYYASWAKGRFTISKTSTTVDLKVTSLTTEDTATYFCVRGGRSPNYDIVSGDIWGPGTLVTVSS VL: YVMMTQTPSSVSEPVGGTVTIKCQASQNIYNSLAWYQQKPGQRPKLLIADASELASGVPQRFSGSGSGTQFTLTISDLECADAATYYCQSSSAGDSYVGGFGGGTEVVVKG', 0.239),
  ('KPEP11_01 (antibody, V domains shown, also called anti-human EphA4 rabbit monoclonal antibody KPEP11_01) VH: QSVEESGGRLVTPGTPLTLTCTVSGFSLSSYHMSWVRQAPGKGLEWIGIIYRSGNTYSANWAKGRFTISKTSTTVDLKITSPTTEDTATYFCARESSTFYGMDLWGPGTLVTVSS VL: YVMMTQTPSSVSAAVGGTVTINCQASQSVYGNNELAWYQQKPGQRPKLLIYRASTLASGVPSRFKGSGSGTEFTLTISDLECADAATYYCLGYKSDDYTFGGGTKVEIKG', 0.231),
  ('KPEP11_07 (antibody, V domains shown, Rabbit IgG; also called anti-human EphA4 rabbit monoclonal antibody KPEP11_07) VH: QEQLKESGGRLVTPGGSLTLTCTVSGIDLSSYAMSWVRQAPEKGLEWIGFINMYGTYYASWAKGRFTISRTSTTVDLKVTSLTTEDTATYFCVRGGRSPDYDIVSGDIWGPGTLVTVSS VL: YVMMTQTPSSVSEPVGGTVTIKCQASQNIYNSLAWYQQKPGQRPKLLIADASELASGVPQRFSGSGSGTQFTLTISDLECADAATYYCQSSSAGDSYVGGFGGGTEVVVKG', 0.24);

Pending binder:
Ask: Looking for the measured absorbance of KPEP11_20 (antibody, V domains shown, Rabbit IgG; also called anti-human EphA4 rabbit monoclonal antibody KPEP11_20) VH: QSLEESGGRLVTPGTPLTLTCTVSGFSLNNYYMNWVRQAPGKGLEWIGIIYPDIDTTDYASWVKGRFTISKTSTTVDLKITSPTTEDTATYFCARSDIDYYTTRLDLWGQGTLVTISS VL: AQVLTQTPSPVSAAVGGTVSINCQSSPSVYNNNWLSWFQQKPGQPPKLLIYGASTLASGVPSRFKGSGSGTQFTLTISDVQCDDAATYYCAGGYDSNSDTAFGGGTELEILG , can you help?
Reply: 0.274

Each recorded value in this set is attributed to patent US20240385190A1.
